molecular target: T1, Cynomolgus monkey BCMA (cynomolgus monkey); test: SPR, IgG immobilised, cyno BCMA analyte
T1 construct: Soluble analyte in SPR; also called cyBCMA; Cyno BCMA
result.type: koff (s⁻¹)

binder="COMBO_Rd4_0.6nM_C09 (antibody, V domains shown, IgG) VH: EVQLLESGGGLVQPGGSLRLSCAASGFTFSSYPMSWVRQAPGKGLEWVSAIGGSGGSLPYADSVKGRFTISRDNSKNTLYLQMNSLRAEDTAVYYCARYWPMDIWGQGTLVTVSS VL: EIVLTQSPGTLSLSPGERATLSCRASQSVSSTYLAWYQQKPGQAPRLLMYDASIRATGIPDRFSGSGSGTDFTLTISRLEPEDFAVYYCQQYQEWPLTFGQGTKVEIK" readout_number=0.000346
binder="A02_Rd4_6nM_C23 (antibody, V domains shown, IgG) VH: EVQLLESGGGLVQPGGSLRLSCAASGFTFSSYAMNWVRQAPGKGLEWVSAISDSGGSGWYADSVKGRFTISRDNSKNTLYLQMNSLRAEDTAVYYCARYWPMSLWGQGTLVTVSS VL: EIVLTQSPGTLSLSPGERATLSCRASQSVSVEYLAWYQQKPGQAPRLLMYDASIRATGIPDRFSGSGSGTDFTLTISRLEPEDFAVYYCQQYARWPLTFGQGTKVEIK" readout_number=0.000414
binder="COMBO_Rd4_0.6nM_C22 (antibody, V domains shown, IgG; also called COM22) VH: EVQLLESGGGLVQPGGSLRLSCAASGFTFSSYAMNWVRQAPGKGLEWVSAISDSGGSRWYADSVKGRFTISRDNSKNTLYLQMNSLRAEDTAVYYCTRYWPMDIWGQGTLVTVSS VL: EIVLTQSPGTLSLSPGERATLSCRASVRVSSTYLAWYQQKPGQAPRLLMYDASIRATGIPDRFSGSGSGTDFTLTISRLEPEDFAVYYCQQYMKWPLTFGQGTKVEIK" readout_number=6.66e-05
